Parameter T/C: see the listing below.
system: L1210 leukemia ip in BDF1 mice, survival T/C; experiment: NCI In Vivo Anticancer Drug Screen. Data for tumor model L1210 Leukemia (intraperitoneal) in B6D2F1 (BDF1) mice; conditions: endpoint: mean survival time; dose: 400.0 mg/kg/injection; schedule: Q04DX002 (ip); vehicle: Klucel (hydroxypropylcellulose) (HPC); higher = longer survival
Toxic doses and inconclusive results are not listed.
recorded-endpoint: T/C

compound=C1SCSCS1 test_result="93 % of control"
compound=C[CH2][Pb]([CH2]C)([CH2]C)[n]1ccnc1 test_result="100 % of control"
compound="CC1C(c2ccccc2)OCCN1CN1C(=O)c2ccccc2C1=O (stereo not drawn)" test_result="104 % of control"
compound="COC1(c2ccccc2)c2cc3ccccc3cc2C(OC)(c2ccccc2)c2cc3ccccc3cc21 (stereo not drawn)" test_result="95 % of control"
compound=Nc1ccc(C(=O)O)c(F)c1 test_result="101 % of control"
compound="CCOC(=O)C(c1ccccc1)C(NC(C)=O)(C(=O)OCC)C(=O)OCC (stereo not drawn)" test_result="93 % of control"
compound=CCOC(=O)CNc1cc(Cl)cc(Cl)c1 test_result="96 % of control"
compound=O=C1c2ccccc2C(=O)N1CCOCCOCCOCCN1C(=O)c2ccccc2C1=O test_result="102 % of control"
compound="O=C1CCC(N2C(=O)C3C4CCC(O4)C3C2=O)C(=O)N1 (stereo not drawn)" test_result="103 % of control"
compound="Cc1ccc([N+](=O)[O-])cc1NC(=O)OCC1CCCO1 (stereo not drawn)" test_result="97 % of control"
compound=SC12CC3CC(CC(C3)C1)C2 test_result="98 % of control"
compound=O=C(Nc1ccc(F)cc1)c1ccc([N+](=O)[O-])cc1 test_result="92 % of control"
compound=c1ccc(Cc2nn[nH]n2)cc1 test_result="105 % of control"

* * *

test system: L1210 leukemia ip in BDF1 mice, survival T/C; test: NCI In Vivo Anticancer Drug Screen. Data for tumor model L1210 Leukemia (intraperitoneal) in B6D2F1 (BDF1) mice; conditions: endpoint: mean survival time; dose: 400.0 mg/kg/injection; schedule: Q01DX001 (ip); vehicle: other; higher = longer survival
Toxic doses and inconclusive results are not listed.
recorded-endpoint: T/C

compound="O=C(N/N=C/c1ccc(O)cc1)C(c1ccccc1)N1CCCCC1 (stereo not drawn)" test_result="96 % of control"
compound=CC(C)COC(=O)c1cccc2c1-c1ccccc1C2=O test_result="98 % of control"
compound=COc1cc(C(=O)N2CCN(c3ccccc3)CC2)c2ccccc2n1 test_result="101 % of control"
compound=CN(C)CCC1(CCN(C)C)C(=O)CCc2ccccc21 test_result="103 % of control"
compound=CCCCCCCCOC(=O)c1[nH]cnc1/N=N/N(C)CCCC test_result="102 % of control"
compound=COc1ccc(S(=O)(=O)c2ccc(F)cc2)cc1 test_result="95 % of control"
compound=O=C1c2ccccc2C(=O)N1Cc1ccc([N+](=O)[O-])cc1 test_result="95 % of control"
compound="O=C1NC(=O)C(c2ccccc2)O1 (stereo not drawn)" test_result="97 % of control"

* * *

test system: L1210 leukemia ip in BDF1 mice, survival T/C; experiment: NCI In Vivo Anticancer Drug Screen. Data for tumor model L1210 Leukemia (intraperitoneal) in B6D2F1 (BDF1) mice; conditions: endpoint: mean survival time; dose: 200.0 mg/kg/injection; schedule: Q01DX009 (ip); vehicle: water; higher = longer survival
Toxic doses and inconclusive results are not listed.
recorded-endpoint: T/C

chemical_structure=CN1CCNC(=O)CC1 test_system="L1210 leukemia ip in BDF1 mice, survival T/C" recorded_endpoint=T/C test_result="114 % of control"
chemical_structure=CCOC(=O)Nc1nc(Cl)c(Cl)nc1Cl test_system="L1210 leukemia ip in BDF1 mice, survival T/C" recorded_endpoint=T/C test_result="91 % of control"
chemical_structure=O=C1C(=O)c2ccccc2C(O)=C1CC=C1CCCC1 test_system="L1210 leukemia ip in BDF1 mice, survival T/C" recorded_endpoint=T/C test_result="103 % of control"
chemical_structure=c1ccc(-c2c(-c3ccccc3)c(-c3ccccc3)c(-c3ccccc3)c(-c3ccccc3)c2-c2ccccc2)cc1 test_system="L1210 leukemia ip in BDF1 mice, survival T/C" recorded_endpoint=T/C test_result="100 % of control"

* * *

Tested on: L1210 leukemia ip in BDF1 mice, survival T/C
Experiment: NCI In Vivo Anticancer Drug Screen. Data for tumor model L1210 Leukemia (intraperitoneal) in B6D2F1 (BDF1) mice
Conditions: endpoint: mean survival time; dose: 200.0 mg/kg/injection; schedule: Q04DX003 (ip); vehicle: saline
Protocol: The antitumor activity of compounds was measured in mice bearing transplantable tumors. Survival or tumor size were measured and the results are expressed as the measurement made in the treated group (T) divided by the measurement made in the vehicle treated control group (C). The tumor model used in this assay is L1210 Leukemia (intraperitoneal) in B6D2F1 (BDF1) mice
Inconclusive results and toxic doses are left out. No stated cut-off is given here; in the data, active means T/C of 150% or more; inactive means T/C below 125%.
Classes used: active, inactive

molecule="OC1C(O)C(O)C(O)C(O)C1O (configuration not stated)" test_system="L1210 leukemia ip in BDF1 mice, survival T/C" label_value=inactive
molecule=CCCOP(=O)(CCl)OCCC test_system="L1210 leukemia ip in BDF1 mice, survival T/C" label_value=inactive
molecule="CN=C(C)C1=C(O)C(CC(=O)OC)N(C)C1=O (configuration not stated)" test_system="L1210 leukemia ip in BDF1 mice, survival T/C" label_value=inactive
molecule=CN(C)CCN1C(=O)NC(C)(C)C1=O test_system="L1210 leukemia ip in BDF1 mice, survival T/C" label_value=inactive
molecule="COC1CC(OC2OC(CO)C(O)C(O)C2O)/C(=C\\C#N)C(O)C1OC (configuration not stated)" test_system="L1210 leukemia ip in BDF1 mice, survival T/C" label_value=inactive
molecule=CN(C)C test_system="L1210 leukemia ip in BDF1 mice, survival T/C" label_value=inactive
molecule="O=S(=O)(Oc1ccc(-c2ccccc2)cc1)C1CC1c1ccccc1 (configuration not stated)" test_system="L1210 leukemia ip in BDF1 mice, survival T/C" label_value=inactive
molecule="CNC(=O)N1CC(C)OC(C)C1 (configuration not stated)" test_system="L1210 leukemia ip in BDF1 mice, survival T/C" label_value=inactive
molecule=CC1=NNC(=O)CC1 test_system="L1210 leukemia ip in BDF1 mice, survival T/C" label_value=inactive
molecule="O=C1OC(=O)C2C(c3ccccc3)C=CC(c3ccccc3)C12 (configuration not stated)" test_system="L1210 leukemia ip in BDF1 mice, survival T/C" label_value=inactive
molecule=CN1CCCCC1(Cc1ccccc1)Cc1ccccc1 test_system="L1210 leukemia ip in BDF1 mice, survival T/C" label_value=inactive
molecule=Cc1nc2n[nH]c(N)c2nc1C test_system="L1210 leukemia ip in BDF1 mice, survival T/C" label_value=inactive
molecule="COC(=O)C1C(O)CN2CCCC12 (configuration not stated)" test_system="L1210 leukemia ip in BDF1 mice, survival T/C" label_value=inactive
molecule=COc1ccc(OC)c(/C=N/NC(=O)CCCCCCCCC(=O)N/N=C/c2cc(OC)ccc2OC)c1 test_system="L1210 leukemia ip in BDF1 mice, survival T/C" label_value=inactive
molecule=NC(=O)SCC(=O)Nc1ccc2ncccc2c1 test_system="L1210 leukemia ip in BDF1 mice, survival T/C" label_value=inactive
molecule="COC(=O)C(C)NC(=O)C1CSC(C)(C)N1C=O (configuration not stated)" test_system="L1210 leukemia ip in BDF1 mice, survival T/C" label_value=inactive
molecule="CCC1(C)C(=O)N(Br)C(=O)N1Br (configuration not stated)" test_system="L1210 leukemia ip in BDF1 mice, survival T/C" label_value=inactive
molecule="CC1C(C)(C)P(N)(=O)C1(C)C (configuration not stated)" test_system="L1210 leukemia ip in BDF1 mice, survival T/C" label_value=inactive
molecule="C[C@]12CC[C@H](O)CC1=CC[C@@H]1[C@@H]2CC[C@](C)(C(=O)O)[C@H]1CC1Nc2ccccc2C1=O (some centres not stated)" test_system="L1210 leukemia ip in BDF1 mice, survival T/C" label_value=inactive
molecule="CCCCOP(=O)(OCCCC)OC(C)C(C)=O (configuration not stated)" test_system="L1210 leukemia ip in BDF1 mice, survival T/C" label_value=inactive
molecule="CC(=O)OC12C=CC(C(C)=C1)C1C(=O)C=CC(=O)C12 (configuration not stated)" test_system="L1210 leukemia ip in BDF1 mice, survival T/C" label_value=inactive
molecule="O=C(O)C1C2CC(C(Br)C2Br)C1C(=O)O (configuration not stated)" test_system="L1210 leukemia ip in BDF1 mice, survival T/C" label_value=inactive
molecule="COC1OC(CO)C(O)C(NC(=O)N(C)N=O)C1O (configuration not stated)" test_system="L1210 leukemia ip in BDF1 mice, survival T/C" label_value=active
molecule=O=C(O)c1cc(O)c(Br)c(O)c1 test_system="L1210 leukemia ip in BDF1 mice, survival T/C" label_value=inactive
molecule="CCC(N)(C(=O)O)C1CCCCC1 (configuration not stated)" test_system="L1210 leukemia ip in BDF1 mice, survival T/C" label_value=inactive
molecule=CN(C)c1c(-c2ccc(Cl)cc2)cc(-c2ccccc2)[nH]c1=O test_system="L1210 leukemia ip in BDF1 mice, survival T/C" label_value=inactive
molecule="CCOC(=O)C(CC(C)C)NP(=O)(CCl)N(CCCl)CCCl (configuration not stated)" test_system="L1210 leukemia ip in BDF1 mice, survival T/C" label_value=inactive
